Source of measurements: patent US20170239212A1

test system: Jurkat cell line; test: in vitro; type: cell-based; details: Jurkat cells, knock down of cellular ATP
quantity_kind: CC50 (nM)
Return type: number; implicit unit nM.

{"molecule": "CCCCCCCCCCCCCC(=O)O[C@@H]1[C@@H](C)[C@@]2(O)[C@@H](C=C(CO)C[C@]3(O)C(=O)C(C)=C[C@@H]23)[C@@H]2C(C)(C)[C@]12OC(C)=O [PMA, phorbol 12-myristate 13-acetate]", "endpoint_value": 0.1}

Quick note, CC50 for COC(=O)/C=C1/C[C@H]2C[C@]3(O)O[C@H](C[C@@H](O)CC(=O)O[C@@H]([C@@H](C)O)C[C@@H]4C/C(=C\C(=O)OC)[C@H](OC(C)=O)[C@@](O)(O4)C(C)(C)/C=C/[C@@H](C1)O2)C[C@H](OC(C)=O)C3(C)C [Bryostatin 7] landed at 4.6

----------
system: HIV long terminal repeat (LTR) promoter; test: cells; type: cell-based; conditions: Human immunodeficiency virus 1; Jurkat cells, LTR-luciferase; incubated 24, 48 and 72 hours (time of the listed values not stated)
quantity_kind: EC50
Quick note: unit goes after the number.

Below, each entry is followed by its recorded EC50 result.
{"smiles_string": "C=C1CC2C[C@@H](O)CC(=O)O[C@@H]([C@@H](C)O)C[C@@H]3C/C(=C\\C(=O)OC)[C@H](OC(C)=O)[C@@](O)(O3)C(C)(C)/C=C/[C@H]3CC(=C)C[C@@H](C[C@@H](C1)O2)O3", "endpoint_value": "10 nM"}
{"smiles_string": "C=C1CC2C[C@@H](O)CC(=O)O[C@@H]([C@@H](C)O)C[C@@H]3C/C(=C\\C(=O)OC)[C@H](OC(=O)CCCCCN(C)C)[C@@](O)(O3)C(C)(C)/C=C/[C@H]3CC(=C)C[C@@H](C[C@@H](C1)O2)O3", "endpoint_value": "80 nM"}
{"smiles_string": "C=C1C[C@@H]2C[C@@H]3CC(=C)C[C@H](/C=C/C(C)(C)[C@]4(O)O[C@@H](C/C(=C\\C(=O)OC)[C@@H]4OC(=O)/C=C/C=C/CCC)C[C@H]([C@@H](C)O)OC(=O)C[C@H](O)C[C@H](C1)O2)O3", "endpoint_value": "0.2 nM"}

Please turn your attention to the following entry.
Looking up CC(=O)O[C@@]12C[C@@H](C)[C@@]3(O)[C@@H](C=C(CO)C[C@]4(O)C(=O)C(C)=C[C@@H]34)[C@@H]1C2(C)C , I see its EC50 listed as 130 nM

----------
experiment: in vitro; assay type: cell-based; details: human; Jurkat cells, knock down of cellular ATP
quantity_kind: CC50 (nM)
Use nM as the unit, but write only the number.

{"smiles_string": "C=C1CC2C[C@@H](O)CC(=O)O[C@@H]([C@@H](C)O)C[C@@H]3C/C(=C\\C(=O)OC)[C@H](OC(=O)CCCCCN(C)C)[C@@](O)(O3)C(C)(C)/C=C/[C@H]3CC(=C)C[C@@H](C[C@@H](C1)O2)O3", "endpoint_unit": "nM", "CC50": 550}

// field: CC50; key: CC(=O)O[C@@]12C[C@@H](C)[C@@]3(O)[C@@H](C=C(CO)C[C@]4(O)C(=O)C(C)=C[C@@H]34)[C@@H]1C2(C)C ; value = 370

For record C=C1CC2C[C@@H](O)CC(=O)O[C@@H]([C@@H](C)O)C[C@@H]3C/C(=C\C(=O)OC)[C@H](OC(C)=O)[C@@](O)(O3)C(C)(C)/C=C/[C@H]3CC(=C)C[C@@H](C[C@@H](C1)O2)O3 the listed CC50 is 50

Lab note: measured CC50 of C=C1C[C@@H]2C[C@@H]3CC(=C)C[C@H](/C=C/C(C)(C)[C@]4(O)O[C@@H](C/C(=C\C(=O)OC)[C@@H]4OC(=O)/C=C/C=C/CCC)C[C@H]([C@@H](C)O)OC(=O)C[C@H](O)C[C@H](C1)O2)O3 was 5

----------
Form field: Max signal (% of control) (one value per entry).
test system: HIV long terminal repeat (LTR) promoter; assay: HOS LTR stimulation assay (luciferase reporter); assay type: cell-based; settings: HOS cells, LTR-luciferase signal

Sample records with Max signal (% of control):
{"smiles_string": "CC(=O)O[C@@]12C[C@@H](C)[C@@]3(O)[C@@H](C=C(CO)C[C@]4(O)C(=O)C(C)=C[C@@H]34)[C@@H]1C2(C)C", "quantity_kind": "Max signal (% of control)", "endpoint_value": "274 % of control"}
{"smiles_string": "C=C1C[C@@H]2C[C@@H]3CC(=C)C[C@H](/C=C/C(C)(C)[C@]4(O)O[C@@H](C/C(=C\\C(=O)OC)[C@@H]4OC(=O)/C=C/C=C/CCC)C[C@H]([C@@H](C)O)OC(=O)C[C@H](O)C[C@H](C1)O2)O3", "quantity_kind": "Max signal (% of control)", "endpoint_value": "166 % of control"}
{"smiles_string": "COC(=O)/C=C1/C[C@H]2C[C@]3(O)O[C@H](C[C@@H](O)CC(=O)O[C@@H]([C@@H](C)O)C[C@@H]4C/C(=C\\C(=O)OC)[C@H](OC(C)=O)[C@@](O)(O4)C(C)(C)/C=C/[C@@H](C1)O2)C[C@H](OC(C)=O)C3(C)C", "quantity_kind": "Max signal (% of control)", "endpoint_value": "250 % of control"}

// moving on: another record for Max signal (% of control)
Input CCC/C=C/C=C/C(=O)O[C@H]1/C(=C/C(=O)OC)C[C@H]2C[C@H]([C@@H](C)O)OC(=O)C[C@H](O)C[C@@H]3C[C@H](OC(C)=O)C(C)(C)[C@](O)(C[C@@H]4C/C(=C/C(=O)OC)C[C@H](/C=C/C(C)(C)[C@]1(O)O2)O4)O3 . Output Max signal (% of control): 157 % of control

----------
Reported Selectivity (CC50:EC50) values are given for each entry in this list.
tested on: HIV long terminal repeat (LTR) promoter; experiment: in vitro; assay type: cell-based; conditions: Jurkat cells, ratio of the CC50 to the EC50
Enter the number alone.

{"compound": "COC(=O)/C=C1/C[C@H]2C[C@]3(O)O[C@H](C[C@@H](O)CC(=O)O[C@@H]([C@@H](C)O)C[C@@H]4C/C(=C\\C(=O)OC)[C@H](OC(C)=O)[C@@](O)(O4)C(C)(C)/C=C/[C@@H](C1)O2)C[C@H](OC(C)=O)C3(C)C", "subject_of_test": "HIV long terminal repeat (LTR) promoter", "endpoint_value": 4.6}

Measured Selectivity (CC50:EC50), CCCCCCCCCCCCCC(=O)O[C@@H]1[C@@H](C)[C@@]2(O)[C@@H](C=C(CO)C[C@]3(O)C(=O)C(C)=C[C@@H]23)[C@@H]2C(C)(C)[C@]12OC(C)=O [PMA, phorbol 12-myristate 13-acetate] : 1

----------
Measured selectivity ratio by item
test system: HIV long terminal repeat (LTR) promoter; test: in vitro; format: cell-based; conditions: human; Jurkat cells, ratio of the CC50 to the EC50
Lab note: write the figure by itself, no unit.

{"compound": "CC(=O)O[C@@]12C[C@@H](C)[C@@]3(O)[C@@H](C=C(CO)C[C@]4(O)C(=O)C(C)=C[C@@H]34)[C@@H]1C2(C)C [Prostratin]", "selectivity ratio": 2.8}
{"compound": "C=C1C[C@@H]2C[C@@H]3CC(=C)C[C@H](/C=C/C(C)(C)[C@]4(O)O[C@@H](C/C(=C\\C(=O)OC)[C@@H]4OC(=O)/C=C/C=C/CCC)C[C@H]([C@@H](C)O)OC(=O)C[C@H](O)C[C@H](C1)O2)O3 [MERLE 23]", "selectivity ratio": 25}

Query C=C1CC2C[C@@H](O)CC(=O)O[C@@H]([C@@H](C)O)C[C@@H]3C/C(=C\C(=O)OC)[C@H](OC(C)=O)[C@@](O)(O3)C(C)(C)/C=C/[C@H]3CC(=C)C[C@@H](C[C@@H](C1)O2)O3 [MERLE 35] on HIV long terminal repeat (LTR) promoter; selectivity ratio returned: 5

selectivity ratio of C=C1CC2C[C@@H](O)CC(=O)O[C@@H]([C@@H](C)O)C[C@@H]3C/C(=C\C(=O)OC)[C@H](OC(=O)CCCCCN(C)C)[C@@](O)(O3)C(C)(C)/C=C/[C@H]3CC(=C)C[C@@H](C[C@@H](C1)O2)O3 [MERLE 37] , assay on HIV long terminal repeat (LTR) promoter, is 6.9

----------
system: human osteosarcoma (HOS) cells; test: HOS cell viability (CellTiter-Glo, cellular ATP); format: cell-based; set-up: unit not given here; conditions: knock down of cellular ATP
Here, each record is paired with measured CCEC50 data.
Please reply with the value in numeric form only.

{"smiles_string": "C=C1C[C@@H]2C[C@@H]3CC(=C)C[C@H](/C=C/C(C)(C)[C@]4(O)O[C@@H](C/C(=C\\C(=O)OC)[C@@H]4OC(=O)/C=C/C=C/CCC)C[C@H]([C@@H](C)O)OC(=O)C[C@H](O)C[C@H](C1)O2)O3", "CCEC50": 39.57}

Now for the molecule whose CCEC50 we want.
Tested on human osteosarcoma (HOS) cells, the item COC(=O)/C=C1/C[C@H]2C[C@]3(O)O[C@H](C[C@@H](O)CC(=O)O[C@@H]([C@@H](C)O)C[C@@H]4C/C(=C\C(=O)OC)[C@H](OC(C)=O)[C@@](O)(O4)C(C)(C)/C=C/[C@@H](C1)O2)C[C@H](OC(C)=O)C3(C)C showed CCEC50 equal to 6.24
